tested on: Fibroblast; assay: Multiplex assay against human fibroblast; type: toxicity, cell-based; settings: 48 h, 1 µM, compound concentration 1 uM, replicate 2
METRIC NAME: Population Healthy Nuclei (%)
Numeric only. Scale: %

Example results:
Problem: Tell me measured Population Healthy Nuclei (%) for `C[C@]12CC[C@@H]3c4ccc(O)cc4CC[C@H]3[C@@H]1CC[C@@H]2O` please.
Result: 74

Problem: Tell me measured Population Healthy Nuclei (%) for `COC(=O)C1=C(C)NC(C)=C(C(=O)OCCCN2CCC(c3ccccc3)(c3ccccc3)CC2)[C@H]1c1cccc([N+](=O)[O-])c1` please.
Result: 38

Problem: Tell me measured Population Healthy Nuclei (%) for Cc1ccc2c(c1)c1c(n2CCc2ccc(C)nc2)CCN(C)C1 [LATREPIRDINE] please.
Result: 43

In the following, a different compound is considered.
Problem: Tell me measured Population Healthy Nuclei (%) for `CC(C)Oc1ccccc1C(=O)Nc1ccccc1C(=O)Nc1cccc(S(=O)(=O)C(F)(F)F)c1` please.
Result: 67

====

test system: U2OS; test: Multiplex assay against U2OS; type: toxicity, cell-based; conditions: human, 12 h, 10 µM, compound concentration 10 uM, replicate 1
METRIC NAME: Total Cell Count
Just the number, please, no unit after it.

Problem: Recall the reported Total Cell Count of Cc1cccc(CN2CCN(C(c3ccccc3)c3ccc(Cl)cc3)CC2)c1.Cl.Cl (stereo unspecified) when tested on U2OS.
Result: 149

====

system: U2OS; test: Multiplex assay against U2OS; format: toxicity, cell-based; details: human, 12 h, 10 µM, compound concentration 10 uM, replicate 2
METRIC NAME: Population Pyknosed Nuclei (%)
Numeric only. Scale: %

Problem: Tell me measured Population Pyknosed Nuclei (%) for `CNC(=O)Nc1ccc2c(c1)[C@@]1(CC2)OC(=O)N(CC(=O)N(Cc2ccc(F)cc2)[C@@H](C)C(F)(F)F)C1=O` please.
Result: 10

Problem: Tell me measured Population Pyknosed Nuclei (%) for `CC(C)CC(=O)Nc1[nH]nc2c1CN(C(=O)C1CCN(C)CC1)C2(C)C` please.
Result: 10

***
Problem: Tell me measured Population Pyknosed Nuclei (%) for `CNC(=O)Nc1ccc(-c2nc(N3CC4CCC(C3)O4)c3cnn(C4CCC5(CC4)OCCO5)c3n2)cc1` please.
Result: 32

Problem: Tell me measured Population Pyknosed Nuclei (%) for `O=c1cc(N2CCOCC2)oc2c(-c3cccc4c3sc3ccccc34)cccc12` please.
Result: 34

Problem: Tell me measured Population Pyknosed Nuclei (%) for `CCc1ccc(OCc2ccccc2C(=O)Nc2ccc3nc(C)cc(N)c3c2)cc1.Cl` please.
Result: 77

====

Reported values of Population Hoechst High Intensity Objects (%) for individual entries
test system: U2OS; test: Multiplex assay against U2OS; assay type: toxicity, cell-based; conditions: human, 24 h, 10 µM, compound concentration 10 uM, replicate 2
Numeric only. Scale: %

Problem: Tell me measured Population Hoechst High Intensity Objects (%) for `C=CC(=O)Nc1cccc(Sc2nc(Nc3ccc(N4CCN(C)CC4)cc3)ncc2Cl)c1` please.
Result: 12

Problem: Tell me measured Population Hoechst High Intensity Objects (%) for `CC(C)CC(=O)Nc1[nH]nc2c1CN(C(=O)C1CCN(C)CC1)C2(C)C` please.
Result: 16

Problem: Tell me measured Population Hoechst High Intensity Objects (%) for `Cc1ccc(C)c(Oc2ccncc2C(=O)N2CCN(C3CC3)c3ccccc32)c1` please.
Result: 7

====

system: Fibroblast; experiment: Multiplex assay against human fibroblast; format: toxicity, cell-based; settings: 24 h, 1 µM, compound concentration 1 uM, replicate 1
Reported values of Population Pyknosed Nuclei (%) for individual entries
Numeric only. Scale: %

Example results:
Problem: Tell me measured Population Pyknosed Nuclei (%) for COc1cc2ncn(-c3cc(OCc4ccccc4C(F)(F)F)c(C(N)=O)s3)c2cc1OC [GW843682X] please.
Result: 26

Problem: Tell me measured Population Pyknosed Nuclei (%) for `CCc1ccc(OCc2ccccc2C(=O)Nc2ccc3nc(C)cc(N)c3c2)cc1.Cl` please.
Result: 45

Problem: Tell me measured Population Pyknosed Nuclei (%) for `Cl.O=C(O)c1cc(-c2ccc(C3CCNCC3)cc2)c2ccc(-c3ccc(C(F)(F)F)cc3)cc2c1` please.
Result: 28

Problem: Tell me measured Population Pyknosed Nuclei (%) for `O=c1[nH]c2ccccc2n1C1CCN(Cc2ccc(-c3[nH]c4cc5ncnc5cc4nc3-c3ccccc3)cc2)CC1` please.
Result: 15

Problem: Tell me measured Population Pyknosed Nuclei (%) for CN1CCN(Cc2ccc(Nc3ncc(Cl)c(Nc4ccccc4S(=O)(=O)N(C)C)n3)cc2)CC1 [DUBERMATINIB] please.
Result: 14

***
Problem: Tell me measured Population Pyknosed Nuclei (%) for COc1ccccc1CN[C@H]1C2CCN(CC2)[C@H]1C(c1ccccc1)c1ccccc1 [CP-96345] please.
Result: 24

Problem: Tell me measured Population Pyknosed Nuclei (%) for Cc1ccc2c(c1)c1c(n2CCc2ccc(C)nc2)CCN(C)C1 [LATREPIRDINE] please.
Result: 12

Problem: Tell me measured Population Pyknosed Nuclei (%) for CC1=C(C(=O)Nc2cc3cn[nH]c3cc2F)C(c2ccc(C(F)(F)F)cc2)CC(=O)N1 (centres undefined) please.
Result: 23

Problem: Tell me measured Population Pyknosed Nuclei (%) for CNC(=O)Nc1ccc2c(c1)[C@@]1(CC2)OC(=O)N(CC(=O)N(Cc2ccc(F)cc2)[C@@H](C)C(F)(F)F)C1=O [A-486] please.
Result: 17

Problem: Tell me measured Population Pyknosed Nuclei (%) for `CC(C)NC(=O)N1CC[C@H](NC2=Nc3cc(F)ccc3N(CC(F)F)c3ccc(Cl)cc32)C1` please.
Result: 38

Problem: Tell me measured Population Pyknosed Nuclei (%) for Cc1cccc(CN2CCN(C(c3ccccc3)c3ccc(Cl)cc3)CC2)c1.Cl.Cl (centres undefined) please.
Result: 21

Problem: Tell me measured Population Pyknosed Nuclei (%) for `COc1cc(Nc2nccc(-c3cnn4nc(OC)ccc34)n2)cc(C(F)(F)F)c1` please.
Result: 27

Problem: Tell me measured Population Pyknosed Nuclei (%) for C=CC(=O)Nc1ccc2[nH]c(=O)n(C3CCN(Cc4ccc(-c5nc6cc[nH]c(=O)c6cc5-c5ccccc5)cc4)CC3)c2c1 [Borussertib] please.
Result: 14

Problem: Tell me measured Population Pyknosed Nuclei (%) for `C=CC(=O)Nc1cccc(Oc2nc(Nc3ccc(N4CCN(C)CC4)cc3OC)ncc2Cl)c1` please.
Result: 9

====

system: U2OS; assay: Multiplex assay against U2OS; format: toxicity, cell-based; details: human, 24 h, 1 µM, compound concentration 1 uM, replicate 2
METRIC NAME: Population Pyknosed Nuclei (%)
Quick note: number first, unit second.

Problem: Tell me measured Population Pyknosed Nuclei (%) for `COc1ccccc1CN[C@H]1C2CCN(CC2)[C@H]1C(c1ccccc1)c1ccccc1` please.
Result: 9%

Problem: Tell me measured Population Pyknosed Nuclei (%) for `CCc1ccc(OCc2ccccc2C(=O)Nc2ccc3nc(C)cc(N)c3c2)cc1.Cl` please.
Result: 46%

Problem: Tell me measured Population Pyknosed Nuclei (%) for `Cc1c[nH]c2nccc(Oc3c(F)cc(Nc4cc(Cl)nc(N)n4)cc3F)c12` please.
Result: 20%

Problem: Tell me measured Population Pyknosed Nuclei (%) for `CC(C)NC(=O)N1CC[C@H](NC2=Nc3cc(F)ccc3N(CC(F)F)c3ccc(Cl)cc32)C1` please.
Result: 5%

Problem: Tell me measured Population Pyknosed Nuclei (%) for `O=c1cc(N2CCOCC2)oc2c(-c3cccc4c3sc3ccccc34)cccc12` please.
Result: 6%

Problem: Tell me measured Population Pyknosed Nuclei (%) for `CNC(=O)Nc1ccc2c(c1)[C@@]1(CC2)OC(=O)N(CC(=O)N(Cc2ccc(F)cc2)[C@@H](C)C(F)(F)F)C1=O` please.
Result: 3%

Problem: Tell me measured Population Pyknosed Nuclei (%) for `CN1CCN(Cc2ccc(Nc3ncc(Cl)c(Nc4ccccc4S(=O)(=O)N(C)C)n3)cc2)CC1` please.
Result: 4%

Problem: Tell me measured Population Pyknosed Nuclei (%) for `COc1cc(Nc2nccc(-c3cnn4nc(OC)ccc34)n2)cc(C(F)(F)F)c1` please.
Result: 12%

***
Problem: Tell me measured Population Pyknosed Nuclei (%) for `CNC(=O)Nc1ccc(-c2nc(N3CC4CCC(C3)O4)c3cnn(C4CCC5(CC4)OCCO5)c3n2)cc1` please.
Result: 16%

====

Reported values of Population Normal (%) for individual entries
tested on: HEK-293T; assay: Multiplex assay against HEK293T; assay type: toxicity, cell-based; details: human, 12 h, 10 µM, compound concentration 10 uM, replicate 2

Example results:
Problem: Tell me measured Population Normal (%) for `Cc1nc(N2CC[C@H](O)C2)ncc1-c1cc(C(F)(F)F)cc2[nH]ncc12` please.
Result: 98%

Problem: Tell me measured Population Normal (%) for `C=CC(=O)Nc1ccc2[nH]c(=O)n(C3CCN(Cc4ccc(-c5nc6cc[nH]c(=O)c6cc5-c5ccccc5)cc4)CC3)c2c1` please.
Result: 95%

***
Problem: Tell me measured Population Normal (%) for `CNC(=O)Nc1ccc(-c2nc(N3CC4CCC(C3)O4)c3cnn(C4CCC5(CC4)OCCO5)c3n2)cc1` please.
Result: 92%

Problem: Tell me measured Population Normal (%) for `CC(C)CC(=O)Nc1[nH]nc2c1CN(C(=O)C1CCN(C)CC1)C2(C)C` please.
Result: 94%

Problem: Tell me measured Population Normal (%) for `CC(C)OC(=O)N1CCC(Oc2ncnc3c2cnn3-c2ccc(S(C)(=O)=O)cc2F)CC1` please.
Result: 96%

Problem: Tell me measured Population Normal (%) for `CN1CCN(Cc2ccc(Nc3ncc(Cl)c(Nc4ccccc4S(=O)(=O)N(C)C)n3)cc2)CC1` please.
Result: 95%

Problem: Tell me measured Population Normal (%) for `COc1ccc(-c2ccc3ncc4c(c3c2)n(-c2ccc(N3CCNCC3)c(C(F)(F)F)c2)c(=O)n4C)cn1.O=C(O)/C=C\C(=O)O` please.
Result: 54%

Problem: Tell me measured Population Normal (%) for O=C(c1cc2c(cc1F)OC(c1ccc(F)cc1)(c1ccc(Cl)cc1Cl)O2)N1CCOCC1 (configuration not stated) please.
Result: 90%
